Documented Kp at 8 h across a set of compounds
test: Pharmacokinetic study of salt forms in rat plasma and brain after oral gavage; type: in vivo; details: rat, brain and plasma; male rats, single 25 mg/kg free base by oral gavage; brain at 1, 3 and 8 hours; read-out: Brain:Plasma Ratio

> print(dat)
                                   compound  measured.result
1  CCC(C)C(N)C(=O)NCCN1CCOCC1.Cc1ccc(S(=O)(=O)O)cc1.Cc1ccc(S(=O)(=O)O)cc1 (centres unmarked) [Ditosylate]         1 to 5.7

Shift focus to the following entry.
Query :: Reported Kp at 8 h for CC[C@H](C)[C@H](N)C(=O)NCCN1CCOCC1 (stereo in doubt) [Free base] : what is it?
Result :: 2 to 3.5

* * *

Test: Pharmacokinetic study of salt forms in rat plasma and brain after oral gavage
Assay type: in vivo
Conditions: rat; male rats, single 25 mg/kg free base by oral gavage, plasma; read-out: Cmax
Method: The objective of this study was to provide preliminary pharmacokinetic information regarding the exposure of different salt forms of LM11A-31 in rat plasma and brain when dosed by oral gavage. Groups consisting of nine male rats received single doses of 25 mg/kg free base by oral gavage. […] The samples were analyzed by LC-MS/MS to determine the plasma and brain concentrations of the test article. […]
endpoint.label: Cmax (ng/mL)
API: value field is a number in ng/mL; no unit string.

> print(dat)
                                   compound  measured.result
1  CCC(C)C(N)C(=O)NCCN1CCOCC1.Cc1ccc(S(=O)(=O)O)cc1.Cc1ccc(S(=O)(=O)O)cc1 (centres unmarked) [Ditosylate]              296

Turning now to a further compound:
Query :: Given the entry CC[C@H](C)[C@H](N)C(=O)NCCN1CCOCC1 (stereo in doubt) [Free base] , report its measured Cmax.
Result :: 371

* * *

Below: a set of entries, each annotated with reported solubility.
test: Solubility in water (incremental solvent addition, visual observation); conditions: thermodynamic from solid

Query :: Quick one: solubility for CCC(C)C(N)C(=O)NCCN1CCOCC1.Cc1ccc(S(=O)(=O)O)cc1.Cc1ccc(S(=O)(=O)O)cc1 (stereo not shown) [Ditosylate] ?
Result :: 0.5 to 0.7 mg/mL

* * *

assay: Hygroscopicity - dynamic vapor sorption (DVS); type: physicochemical; conditions: DVS sorption phase, 95% RH, 25° C.
Counter-ions that a name gives are not always drawn.
endpoint.label: moisture sorption at 95% RH (wt %)
Lab book: enter the figure in wt %, no units written.

For orientation, consider the following solved cases.
> print(dat)
                                   compound  measured.result
1  CCC(C)C(N)C(=O)NCCN1CCOCC1.CS(=O)(=O)O.CS(=O)(=O)O (stereo not shown) [Dimesylate]              110
2  CC[C@H](C)[C@H](N)C(=O)NCCN1CCOCC1 (stereo in doubt) [Free base]               96
3  CCC(C)C(N)C(=O)NCCN1CCOCC1.O=C(O)C(=O)O (stereo not shown) [Monooxalate]              1.5

Query :: Which moisture sorption at 95% RH reading was recorded for the compound CCC(C)C(N)C(=O)NCCN1CCOCC1 (stereo not shown) [di-HCl salt] ?
Result :: 140

* * *

experiment: Pharmacokinetic study of salt forms in rat plasma and brain after oral gavage; type: in vivo; conditions: rat; male rats, single 25 mg/kg free base by oral gavage, plasma
half-life overview
The figure you give is taken to be in min; do not add the unit.

> print(dat)
                                   compound  measured.result
1  CCC(C)C(N)C(=O)NCCN1CCOCC1.Cc1ccc(S(=O)(=O)O)cc1.Cc1ccc(S(=O)(=O)O)cc1 (centres unmarked) [Ditosylate]             37.8

Query :: Dear colleague, I am looking for the recorded half-life of the following compound: CC[C@H](C)[C@H](N)C(=O)NCCN1CCOCC1 (stereo in doubt) [Free base]
Result :: 63
